Tested on: Streptococcus sp. 'group A'
test protocol: growth inhibition of control SK(-) GAS strain, dose response, counter-screen for streptokinase expression inhibitor project, luminescence, kanamycin, BacTiterGlo, confirmation (AID 1900)
Assay type: functional, organism-based
Active and inactive are the calls of the source. Cut-off read from the data, not from the text of the source: actives have a measured EC50 and inactives only a lower limit.
assay endpoint: EC50

Known EC50 results, listed for orientation:
compound: Sc1ncnc2scc(-c3ccc(Cl)cc3)c12
target or test system: Streptococcus sp. 'group A'
EC50: 13.1 µM (active)

compound: O=C1c2cccc3cccc(c23)C(=O)N1CC1CCN(CC(O)COc2ccc3ccccc3c2)CC1 (stereo unspecified)
target or test system: Streptococcus sp. 'group A'
EC50: 6.34 µM (active)

compound: O=C(Nc1cccc(Cl)c1N1CCCC1)c1cc2ccccc2o1
target or test system: Streptococcus sp. 'group A'
EC50: 8.81 µM (active)

compound: CC1CCN(c2ccccc2NC(=O)c2ccc(Br)o2)CC1
target or test system: Streptococcus sp. 'group A'
EC50: 5.4 µM (active)

compound: Cc1ccc(/C=C/C(=O)C2C(=O)c3ccccc3C2=O)cc1
target or test system: Streptococcus sp. 'group A'
EC50: 1.95 µM (active)

API: the following record is the query input.
Q) For Streptococcus sp. 'group A', provide EC50 of "CCN(c1ccc(C)cc1C)S(=O)(=O)c1nnc(NC(=O)c2ccco2)s1" please.
A) 2.15 µM (active)
